Target: p110β (Homo sapiens)
Sequence (P42338 2-1070 limits assumed): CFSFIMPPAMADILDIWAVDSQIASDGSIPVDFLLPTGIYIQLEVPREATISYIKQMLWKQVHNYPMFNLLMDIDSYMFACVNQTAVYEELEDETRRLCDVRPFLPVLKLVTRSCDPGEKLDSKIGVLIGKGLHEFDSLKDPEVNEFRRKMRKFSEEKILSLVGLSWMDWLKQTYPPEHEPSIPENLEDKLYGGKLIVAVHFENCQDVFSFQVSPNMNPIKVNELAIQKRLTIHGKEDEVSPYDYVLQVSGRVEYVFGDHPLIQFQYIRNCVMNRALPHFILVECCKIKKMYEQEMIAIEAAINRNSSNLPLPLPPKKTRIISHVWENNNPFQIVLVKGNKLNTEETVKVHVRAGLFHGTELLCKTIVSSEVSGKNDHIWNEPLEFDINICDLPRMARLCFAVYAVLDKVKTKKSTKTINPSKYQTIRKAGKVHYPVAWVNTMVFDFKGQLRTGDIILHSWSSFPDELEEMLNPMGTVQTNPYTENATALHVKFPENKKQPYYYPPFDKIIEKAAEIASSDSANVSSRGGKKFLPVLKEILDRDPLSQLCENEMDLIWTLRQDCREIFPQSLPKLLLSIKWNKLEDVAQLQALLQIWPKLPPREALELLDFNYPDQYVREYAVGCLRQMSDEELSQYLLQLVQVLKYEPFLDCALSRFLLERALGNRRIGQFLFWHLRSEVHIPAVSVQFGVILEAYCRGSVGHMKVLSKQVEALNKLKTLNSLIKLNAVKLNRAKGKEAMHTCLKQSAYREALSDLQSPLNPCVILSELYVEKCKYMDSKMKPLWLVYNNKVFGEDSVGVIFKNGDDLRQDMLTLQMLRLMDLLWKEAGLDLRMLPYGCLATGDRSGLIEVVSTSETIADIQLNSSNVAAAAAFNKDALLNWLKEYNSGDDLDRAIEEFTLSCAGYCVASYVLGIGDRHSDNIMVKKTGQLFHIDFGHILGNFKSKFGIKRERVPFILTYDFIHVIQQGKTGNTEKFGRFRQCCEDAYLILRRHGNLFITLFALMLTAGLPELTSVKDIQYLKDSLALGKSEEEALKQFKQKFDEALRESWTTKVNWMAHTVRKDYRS
Sequence (P27986 461-568 partner limits assumed): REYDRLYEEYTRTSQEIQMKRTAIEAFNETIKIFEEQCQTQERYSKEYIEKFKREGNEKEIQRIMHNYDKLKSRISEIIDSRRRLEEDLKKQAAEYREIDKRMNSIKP

- smiles_string: "C[C@H]1OC(=O)N(c2cc(-c3cnc(N)nc3C(F)(F)F)nc(N3CCOCC3)n2)[C@H]1CO"
  output_unit: "nM"
  IC50: 56

----------
Biological target: p110γ (Homo sapiens)
Sequence (P48736 whole entry): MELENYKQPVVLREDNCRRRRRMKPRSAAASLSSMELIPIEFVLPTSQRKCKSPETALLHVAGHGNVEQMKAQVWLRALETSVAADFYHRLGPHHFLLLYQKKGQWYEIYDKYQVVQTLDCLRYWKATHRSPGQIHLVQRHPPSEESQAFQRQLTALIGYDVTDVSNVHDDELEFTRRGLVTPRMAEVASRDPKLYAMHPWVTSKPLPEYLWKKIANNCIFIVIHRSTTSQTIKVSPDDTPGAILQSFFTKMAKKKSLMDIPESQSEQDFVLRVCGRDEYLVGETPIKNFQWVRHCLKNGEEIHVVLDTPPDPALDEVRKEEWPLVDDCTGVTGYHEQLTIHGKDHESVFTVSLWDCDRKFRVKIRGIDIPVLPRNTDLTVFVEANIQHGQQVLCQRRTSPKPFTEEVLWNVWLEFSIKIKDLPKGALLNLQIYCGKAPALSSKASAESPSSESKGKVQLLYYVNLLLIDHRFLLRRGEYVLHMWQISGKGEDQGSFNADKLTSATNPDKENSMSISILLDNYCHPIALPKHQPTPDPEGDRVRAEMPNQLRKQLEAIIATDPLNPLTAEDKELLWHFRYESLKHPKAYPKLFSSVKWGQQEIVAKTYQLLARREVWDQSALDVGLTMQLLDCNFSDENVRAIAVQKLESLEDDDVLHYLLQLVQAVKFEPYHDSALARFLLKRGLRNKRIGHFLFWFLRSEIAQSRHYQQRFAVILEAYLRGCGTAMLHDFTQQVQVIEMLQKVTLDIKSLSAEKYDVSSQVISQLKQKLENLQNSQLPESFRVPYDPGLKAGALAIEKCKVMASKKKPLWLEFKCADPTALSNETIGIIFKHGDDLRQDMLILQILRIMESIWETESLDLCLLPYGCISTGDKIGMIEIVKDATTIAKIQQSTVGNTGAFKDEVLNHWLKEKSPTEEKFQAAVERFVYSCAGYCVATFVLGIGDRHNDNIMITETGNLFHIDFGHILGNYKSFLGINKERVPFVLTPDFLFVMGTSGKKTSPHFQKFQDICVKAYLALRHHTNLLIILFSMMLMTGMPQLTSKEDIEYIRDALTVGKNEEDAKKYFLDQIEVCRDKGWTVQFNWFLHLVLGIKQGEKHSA

- smiles_string: "C[C@H]1OC(=O)N(c2cc(-c3cnc(N)nc3C(F)(F)F)nc(N3CCOCC3)n2)[C@H]1CO"
  IC50: "230 nM"

----------
Molecular target: p110δ (Homo sapiens)
Sequence (O00329 2-1044 limits assumed): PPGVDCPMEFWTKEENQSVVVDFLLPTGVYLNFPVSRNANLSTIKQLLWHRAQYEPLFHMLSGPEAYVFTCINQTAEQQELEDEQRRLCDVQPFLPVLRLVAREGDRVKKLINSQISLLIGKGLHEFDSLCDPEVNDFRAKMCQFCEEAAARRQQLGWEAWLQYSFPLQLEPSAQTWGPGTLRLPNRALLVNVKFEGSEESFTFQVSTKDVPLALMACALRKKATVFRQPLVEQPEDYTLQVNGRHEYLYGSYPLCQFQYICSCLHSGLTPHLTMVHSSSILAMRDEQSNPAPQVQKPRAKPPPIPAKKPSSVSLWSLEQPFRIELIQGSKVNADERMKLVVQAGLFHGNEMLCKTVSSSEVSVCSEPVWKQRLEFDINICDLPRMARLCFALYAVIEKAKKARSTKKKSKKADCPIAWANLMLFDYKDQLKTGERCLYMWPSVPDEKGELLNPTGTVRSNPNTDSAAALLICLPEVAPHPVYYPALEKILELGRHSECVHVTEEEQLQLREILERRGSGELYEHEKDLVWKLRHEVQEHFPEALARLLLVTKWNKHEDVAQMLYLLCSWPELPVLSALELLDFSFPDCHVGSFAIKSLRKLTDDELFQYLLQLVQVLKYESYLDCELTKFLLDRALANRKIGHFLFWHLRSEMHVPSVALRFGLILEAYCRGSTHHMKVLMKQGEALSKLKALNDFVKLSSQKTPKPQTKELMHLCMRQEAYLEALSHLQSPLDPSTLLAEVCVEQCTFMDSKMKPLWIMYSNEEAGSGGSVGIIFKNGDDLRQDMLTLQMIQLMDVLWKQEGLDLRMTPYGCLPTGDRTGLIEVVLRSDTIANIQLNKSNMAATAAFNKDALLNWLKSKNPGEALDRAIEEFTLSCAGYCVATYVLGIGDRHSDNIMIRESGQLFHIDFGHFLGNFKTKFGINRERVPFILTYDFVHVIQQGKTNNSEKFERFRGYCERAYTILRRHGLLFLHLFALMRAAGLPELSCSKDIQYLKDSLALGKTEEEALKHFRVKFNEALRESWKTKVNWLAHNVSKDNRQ
Sequence (P27986 461-568 partner limits assumed): as the sequence (P27986 461-568 partner limits assumed) above
pIC50: −log10 of the molar value.
metric: pIC50

- molecule: "C[C@H]1OC(=O)N(c2cc(-c3cnc(N)nc3C(F)(F)F)nc(N3CCOCC3)n2)[C@H]1CO [CLR457]"
  tgt: "p110δ (Homo sapiens)"
  metric: "pIC50"
  assay_value: 7.41

----------
Target: p110α (Homo sapiens, UniProt P42336)
Sequence (P42336 21-1068 limits assumed): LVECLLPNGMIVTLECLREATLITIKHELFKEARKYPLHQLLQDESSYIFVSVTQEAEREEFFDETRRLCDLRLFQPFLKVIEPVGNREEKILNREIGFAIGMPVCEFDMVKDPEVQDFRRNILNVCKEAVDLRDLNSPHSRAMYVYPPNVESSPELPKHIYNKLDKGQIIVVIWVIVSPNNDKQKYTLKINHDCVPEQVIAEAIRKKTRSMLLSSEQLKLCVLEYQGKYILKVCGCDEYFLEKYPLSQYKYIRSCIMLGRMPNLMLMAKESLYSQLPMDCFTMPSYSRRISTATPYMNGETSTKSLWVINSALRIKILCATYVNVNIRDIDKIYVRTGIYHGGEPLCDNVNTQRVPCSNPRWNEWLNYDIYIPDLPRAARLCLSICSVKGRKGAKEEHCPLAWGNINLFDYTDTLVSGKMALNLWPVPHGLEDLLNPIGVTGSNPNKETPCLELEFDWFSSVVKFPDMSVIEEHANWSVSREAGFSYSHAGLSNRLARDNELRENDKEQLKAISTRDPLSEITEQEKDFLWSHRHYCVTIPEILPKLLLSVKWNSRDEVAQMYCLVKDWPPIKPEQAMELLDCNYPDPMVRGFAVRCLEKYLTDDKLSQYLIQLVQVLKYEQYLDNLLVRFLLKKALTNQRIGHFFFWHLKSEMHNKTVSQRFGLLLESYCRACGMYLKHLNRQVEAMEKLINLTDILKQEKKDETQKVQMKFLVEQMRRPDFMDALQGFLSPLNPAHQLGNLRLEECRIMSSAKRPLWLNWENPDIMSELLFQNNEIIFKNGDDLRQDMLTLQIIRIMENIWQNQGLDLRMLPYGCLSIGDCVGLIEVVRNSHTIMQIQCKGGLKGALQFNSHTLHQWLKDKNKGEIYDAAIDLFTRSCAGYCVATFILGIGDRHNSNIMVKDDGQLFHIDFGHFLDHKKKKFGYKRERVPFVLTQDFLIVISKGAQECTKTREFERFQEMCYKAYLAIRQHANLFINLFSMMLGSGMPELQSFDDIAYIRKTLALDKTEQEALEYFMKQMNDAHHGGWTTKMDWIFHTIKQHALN
pIC50: −log10 of the molar value.

- smiles_string: "C[C@H]1OC(=O)N(c2cc(-c3cnc(N)nc3C(F)(F)F)nc(N3CCOCC3)n2)[C@H]1CO"
  pIC50: 7.05
